B1: tRNA (parent)
chain: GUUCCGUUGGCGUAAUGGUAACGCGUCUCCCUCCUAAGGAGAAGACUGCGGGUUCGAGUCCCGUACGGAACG

- Variants of: B1
- testDetails: yeast fitness relative to wild type (ratio to wild type); higher = fitter; tRNA-Arg(CCU), competitive growth, 37 C, YPD
Fewer inactive variants are shown than the library holds.
assayEndpoint: yeast fitness
A bare number is all that is needed in reply.

variantKey	yeast fitness
U28C A43C G67C	0.528
C27U C60G	0.735
G44A C46U C62U	0.723
C22G C29G C46U	0.568
G50C G51A	0.76

In: Need yeast fitness of U2A C27U A36G , thanks.
Out: 0.578

In: Now the same for A14C U54A
Out: 0.528

In: Now the same for C4A C27U C61U
Out: 0.62

In: Now the same for C5G C11U
Out: 0.886

In: Now the same for U16G G25C C46U G50A
Out: 0.581

In: Now the same for A15C G17A C22U G23C G51A
Out: 0.565

In: Now the same for C24U G50C
Out: 0.774

In: Now the same for A40C A57U G58A
Out: 0.644

In: Now the same for C5U U35C A36G
Out: 0.801

In: Now the same for U2G G12C
Out: 0.757

In: Now the same for U3A C11U A20G
Out: 0.654
